system: recombinant human MMP-13 (Homo sapiens)
protocol: biochemical
applied-conditions: Inhibition Table B; read-out: MMP-13 IC50
Where a name gives a salt, the structure may show the parent alone.
Response field class: string, computed from recorded IC50 by ranges LOW: < 0.6 nM; MID: ≥ 0.6 nM and < 2 nM; HIGH: ≥ 2 nM

C#CCN1CCC(C(=O)NO)(S(=O)(=O)c2ccc(SC3CCCC3)cc2)CC1 [Example 45, Monohydrochloride]	MID
CN1CCC(C(=O)NO)(S(=O)(=O)c2ccc(Sc3ccccc3)cc2)CC1.Cl [Example 33, Monohydrochloride]	MID

Query: Hello team, could you let me know which band the following compound falls into: `O=C(NO)C1(S(=O)(=O)c2ccc(Sc3ccc(O)cc3)cc2)CCSCC1`
Result: LOW

Query: Here is the next compound: Cl.O=C(NO)C1(S(=O)(=O)c2ccc(Sc3ccncc3)cc2)CCOCC1 [Example 104, Monohydrochloride]
Result: MID

Query: Here is the next compound: `O=Cc1ccccc1-c1ccc(S(=O)(=O)C2(C(=O)NO)CCOCC2)cc1`
Result: HIGH

Query: Here is the next compound: `COC(=O)CCc1ccc(Oc2ccc(S(=O)(=O)C3(C(=O)NO)CCOCC3)cc2)cc1`
Result: LOW

Query: Here is the next compound: `COc1ccc(Sc2ccc(S(=O)(=O)C3(C(=O)NO)CCSCC3)cc2)cc1`
Result: MID

Query: Here is the next compound: `O=C(NCc1ccc(F)cc1)C1CCN(c2ccc(S(=O)(=O)C3(C(=O)NO)CCOCC3)cc2)CC1`
Result: HIGH

Query: Here is the next compound: `Cc1ccc(Oc2ccc(S(=O)(=O)C3(C(=O)NO)CCOCC3)cc2)cc1C`
Result: LOW

Query: Here is the next compound: `O=C(NO)C1(S(=O)(=O)c2ccc(Oc3cc(F)cc(F)c3)cc2)CCOCC1`
Result: MID

Query: Here is the next compound: Cl.O=C(NO)C1(S(=O)(=O)c2ccc(Sc3ccccc3)cc2)CCN(C2CC2)CC1 [Example 32, Monohydrochloride]
Result: LOW

Query: Here is the next compound: `NCCc1ccc(Oc2ccc(S(=O)(=O)C3(C(=O)NO)CCSCC3)cc2)cc1`
Result: HIGH

Query: Here is the next compound: O=C(NO)C1(S(=O)(=O)c2ccc(Sc3ccccc3)cc2)CC[S+]([O-])CC1 (stereo not shown)
Result: HIGH

Query: Here is the next compound: O=C(NO)C1(S(=O)(=O)c2ccc(-c3ccc(Cl)cc3)cc2)CCNCC1 [Example 91, Monohydrochloride]
Result: HIGH

Query: Here is the next compound: O=C(NO)C1(S(=O)(=O)c2ccc(NCc3ccccc3)cc2)CCOCC1 [Example 68, Monohydrochloride]
Result: HIGH

Query: Here is the next compound: `O=C(O)CCc1ccc(Oc2ccc(S(=O)(=O)C3(C(=O)NO)CCOCC3)cc2)cc1`
Result: MID

Query: Here is the next compound: CN(c1ccccc1)c1ccc(S(=O)(=O)C2(C(=O)NO)CCNCC2)cc1 [Example 92, Monohydrochloride]
Result: HIGH
